test.name: calcein-AM signal in unstimulated myeloma cells – cell-based, calcein-AM fluorescence, 48 h, PK04 Diversity Set, profiling panel (AID 1166);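 also: cells grown under basal conditions without added stimulus; test concentration not given here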
settings: RPMI8226 myeloma viability, higher = more signal
The entries below come with measured z-score values attached.
Kindly provide the number alone.

Solved cases (4 shown):
- query.smiles: "COc1ccc([Si](C)(C)[C@@H]2[C@@H](CCO)O[C@]3(C(=O)N(Cc4ccccc4)c4ccc(N5CCCCC5=O)cc43)[C@H]2C)cc1"
  z-score: -4.08
- query.smiles: "C=CCNC(=O)[C@H]1[C@@H]2C(=O)O[C@@H](c3ccccc3)[C@@H](c3ccccc3)N2[C@@H](c2ccc(OCCO)cc2)[C@]12C(=O)N(C(=O)OCCOC)c1ccc(C#CC3=CCCCC3)cc12"
  z-score: -2.49
- query.smiles: "COCCOC(=O)N1C(=O)[C@@]2(c3cc(C#CC4(O)CCCCCC4)ccc31)[C@H](C(=O)N1CCc3cc(OC)c(OC)cc3C1)[C@H]1C(=O)O[C@H](c3ccccc3)[C@H](c3ccccc3)N1[C@@H]2c1ccccc1OCCO"
  z-score: -1.47
- query.smiles: "COCCOC(=O)N1C(=O)[C@@]2(c3cc(C#Cc4ccc(OC)cc4)ccc31)[C@H](C(=O)N1CCc3cc(OC)c(OC)cc3C1)[C@H]1C(=O)O[C@H](c3ccccc3)[C@H](c3ccccc3)N1[C@@H]2c1ccc(OCCO)cc1"
  z-score: -1.38

Query: Fill in: z-score of CC(=O)NCCCC[C@@H]1NC(=O)[C@@H]2C[C@H](C(=O)NCCCC[N+](C)(C)C)[C@H](c3cccc(OCCO)c3)N2C1=O is ___
Response: -1.95
